Recorded values, source patent US20230233569A1.

Assayed target: KRAS G12D (Homo sapiens, UniProt P01116+P62937, G12D)
Sequence (P01116 1-169 isoform P01116-2 G12D limits assumed, one chain of several): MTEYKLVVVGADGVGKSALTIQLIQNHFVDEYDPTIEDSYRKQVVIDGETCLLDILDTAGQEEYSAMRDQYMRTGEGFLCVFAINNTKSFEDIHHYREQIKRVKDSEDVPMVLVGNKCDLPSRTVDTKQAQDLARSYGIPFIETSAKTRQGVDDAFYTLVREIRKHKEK
Measurement protocol: Disruption of BRAF RBD interaction with Ras (FRET / MOA assay, with Cyclophilin A)
Assay type: biochemical
Test context: read-out: KRAS G12D FRET data, IC50
pIC50: −log10 of the molar value.
Endpoint: pIC50

Molecule	pIC50
CCn1c(-c2cccnc2[C@H](C)OC)c2c3cc(ccc31)-c1cc(O)cc(c1)C[C@H](NS(=O)(=O)c1cnc[nH]1)C(=O)N1CCC[C@H](N1)C(=O)OCC(C)(C)C2 (racemic) [Example A192]	< 5.00

Consider the record given below.
Ask: Tell me its pIC50 given CCn1c(-c2cccnc2[C@H](C)OC)c2c3cc(ccc31)-c1cc(O)cc(c1)C[C@H](NC(=O)[C@H](C(C)C)N(C)C(=O)[C@H]1C[C@@H]1O)C(=O)N1CCC[C@H](N1)C(=O)OCC(C)(C)C2 (single isomer, unassigned) [Example A346] as the entry.
Reply: 6.00 to 7.00

----------
Assayed target: NRAS G12C (Homo sapiens, UniProt P01111+P62937, G12C)
Sequence (P01111 whole entry G12C): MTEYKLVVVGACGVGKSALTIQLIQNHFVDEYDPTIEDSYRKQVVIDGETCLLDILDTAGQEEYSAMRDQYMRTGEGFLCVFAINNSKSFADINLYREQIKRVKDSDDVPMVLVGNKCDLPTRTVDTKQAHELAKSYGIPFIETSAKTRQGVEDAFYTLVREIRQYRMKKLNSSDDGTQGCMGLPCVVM
Sequence (P62937 whole entry): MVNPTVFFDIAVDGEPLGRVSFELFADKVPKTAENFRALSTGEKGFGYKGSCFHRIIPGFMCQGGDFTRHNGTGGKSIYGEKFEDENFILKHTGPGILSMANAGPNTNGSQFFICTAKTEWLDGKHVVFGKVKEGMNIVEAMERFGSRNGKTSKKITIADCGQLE
Measurement protocol: Disruption of BRAF RBD interaction with Ras (FRET / MOA assay, with Cyclophilin A)
Format: biochemical
Test context: NRAS G12C; read-out: NRAS G12C FRET data IC50
Excerpt: This protocol may also be executed substituting other Ras proteins or nucleotides. The purpose of this biochemical assay was to measure the ability of test compounds to facilitate ternary complex formation between a nucleotide-loaded K-Ras isoform and Cyclophilin A; the resulting ternary complex disrupts binding to a BRAF^RBD construct, inhibiting K-Ras signaling through a RAF effector. Data is reported as IC50 values. […]
pIC50: −log10 of the molar value.
# pIC50 annotations

Molecule	pIC50
CCn1c(-c2cccnc2[C@H](C)OC)c2c3cc(ccc31)-c1csc(n1)C[C@H](NC(=O)[C@H](C(C)C)N(C)C(=O)[C@@H]1OCC[C@@H]1C)C(=O)N1CCC[C@H](N1)C(=O)OCC(C)(C)C2 [Example A143]	5.00 to 6.00

Consider the record given below.
Ask: Tell me its pIC50 given C=CC(=O)N1CC[C@@]2(CCN2C(=O)N(C)[C@H](C(=O)N[C@H]2Cc3nc(cs3)-c3ccc4c(c3)c(c(-c3cccnc3[C@H](C)OC)n4CC)CC(C)(C)COC(=O)C3CCCN(N3)C2=O)N(C)C)C1 (single isomer, unassigned) [Example A661] as the entry.
Reply: 7.00 to 8.00

----------
# pIC50 annotations
Assayed target: KRAS G12S (Homo sapiens, UniProt P01116+P62937, G12S)
Sequence (P01116 1-169 isoform P01116-2 G12S limits assumed): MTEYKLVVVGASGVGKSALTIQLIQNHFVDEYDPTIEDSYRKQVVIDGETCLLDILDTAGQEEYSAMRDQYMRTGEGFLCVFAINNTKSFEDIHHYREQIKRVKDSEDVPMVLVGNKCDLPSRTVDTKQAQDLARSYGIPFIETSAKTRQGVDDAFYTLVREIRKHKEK
Sequence (P62937 whole entry): as the sequence (P62937 whole entry) above
Measurement protocol: Disruption of BRAF RBD interaction with Ras (FRET / MOA assay, with Cyclophilin A)
Format: biochemical
Test context: read-out: KRAS G12S FRET data, IC50
pIC50: −log10 of the molar value.

Ask: Tell me its pIC50 given CCn1c(-c2cccnc2[C@H](C)OC)c2c3cc(ccc31)-c1cc(O)cc(c1)C[C@H](NC(=O)[C@H](C(C)C)N(C)C(=O)[C@H]1CC1(F)F)C(=O)N1CCC[C@H](N1)C(=O)OCC(C)(C)C2 [Example A166] as the entry.
Reply: 6.00 to 7.00

Ask: Tell me its pIC50 given C=CC(=O)N1CCOC2(CCN(C(=O)N(C)[C@H](C(=O)N[C@H]3CN4CCC=C(C4)c4ccc5c(c4)c(c(-c4cccnc4[C@H](C)OC)n5CC)CC(C)(C)COC(=O)[C@@H]4CCCN(N4)C3=O)C(C)C)CC2)C1 [Example A563] as the entry.
Reply: 5.00 to 6.00

Ask: Tell me its pIC50 given CCn1c(-c2cccnc2[C@H](C)OC)c2c3cc(ccc31)-c1cc(O)cc(c1)C[C@H](NC(=O)[C@H](C(C)C)N(C)C(=O)[C@@H]1OC[C@@H]3CCC[C@@H]31)C(=O)N1CCC[C@H](N1)C(=O)OCC(C)(C)C2 [Example A407] as the entry.
Reply: 7.00 to 8.00

Ask: Tell me its pIC50 given CCn1c(-c2cccnc2[C@H](C)OC)c2c3cc(ccc31)-c1csc(n1)C[C@H](NC(=O)[C@H](CC1CC1)N(C)C(=O)N1CC(OC)C1)C(=O)N1CCC[C@H](N1)C(=O)OCC(C)(C)C2 (atropisomer, axis not shown) [Example A578] as the entry.
Reply: 7.00 to 8.00

----------
# pIC50 annotations
Assayed target: NRAS Q61R (Homo sapiens, UniProt P01111+P62937, Q61R)
Sequence (P01111 whole entry Q61R): as the sequence (P01111 whole entry G12C) above, with C12G, Q61R counted along it
Sequence (P62937 whole entry): as the sequence (P62937 whole entry) above
Measurement protocol: Disruption of BRAF RBD interaction with Ras (FRET / MOA assay, with Cyclophilin A)
Type: biochemical
Test context: NRAS Q61R; read-out: NRAS Q61R FRET data IC50
pIC50: −log10 of the molar value.

Compound	Observed
CCn1c(-c2cccnc2[C@H](C)OC)c2c3cc(ccc31)-c1csc(n1)[C@@H](O)[C@H](NC(=O)[C@H](C(C)C)N(C)C(=O)N1CC(N(C)C)C1)C(=O)N1CCC[C@H](N1)C(=O)OCC(C)(C)C2 (atropisomer, axis not shown) [Example A489]	6.00 to 7.00

Ask: Tell me its pIC50 given CCn1c(-c2cccnc2[C@H](C)OC)c2c3cc(ccc31)-c1csc(n1)C[C@H](NC(=O)[C@H](C(C)C)N(C)C(=O)N1CCCOCC1)C(=O)N1CCC[C@H](N1)C(=O)OCC(C)(C)C2 (atropisomer, axis not shown) [Example A335] as the entry.
Reply: 7.00 to 8.00

Ask: Tell me its pIC50 given CCn1c(-c2cccnc2[C@H](C)OC)c2c3cc(ccc31)-c1csc(n1)C[C@H](NC(=O)[C@H](C(C)C)N(C)C(=O)N1CC3CC(C1)N3C)C(=O)N1CCC[C@H](N1)C(=O)OCC(C)(C)C2 [Example A284] as the entry.
Reply: 5.00 to 6.00

Ask: Tell me its pIC50 given CCn1c(-c2cccnc2[C@H](C)OC)c2c3cc(ccc31)-c1cc(O)cc(c1)C[C@H](NC(=O)[C@H](C(C)C)N(C)C(=O)C1(C#N)CC1)C(=O)N1CCC[C@H](N1)C(=O)OCC(C)(C)C2 (racemic) [Example A159] as the entry.
Reply: 7.00 to 8.00

----------
Assayed target: KRAS G12S (Homo sapiens, UniProt P01116+P62937, G12S)
Measurement protocol: Disruption of BRAF RBD interaction with Ras (FRET / MOA assay, with Cyclophilin A)
Assay type: biochemical
Test context: read-out: KRAS G12S FRET data, IC50
pIC50: −log10 of the molar value.
Endpoint: pIC50

Worked examples, 3 compounds total:
Compound	pIC50
C=CC(=O)N1CC[C@H](C(=O)N(C)[C@H](C(=O)N[C@H]2Cc3cc(O)cc(c3)-c3ccc4c(c3)c(c(-c3ccc(CN(C)C)cc3COC)n4CC)CC(C)(C)COC(=O)[C@@H]3CCCN(N3)C2=O)C(C)C)C1	6.00 to 7.00
CCn1c(-c2cccnc2[C@H](C)OC)c2c3cc(ccc31)-c1csc(n1)C[C@H](NC(=O)[C@H](C(C)C)N(C)C(=O)N1C[C@H]3CN(C)C[C@H]3C1)C(=O)N1CCC[C@H](N1)C(=O)OCC(C)(C)C2	6.00 to 7.00
C=CC(=O)N1CC[C@H](C(=O)N(C)[C@H](C(=O)N[C@H]2Cc3cc(O)cc(c3)-c3ccc4c(c3)c(c(-c3ccc5cc(CN(C)C)n(C)c5c3)n4CC)CC(C)(C)COC(=O)[C@@H]3CCCN(N3)C2=O)C(C)C)C1	5.00 to 6.00

Ask: Tell me its pIC50 given C=CC(=O)N1CC[C@H](C(=O)N(C)[C@H](C(=O)N[C@H]2Cc3cc(O)cc(c3)-c3ccc4c(c3)c(c(-c3cccnc3COC)n4CC)CC(C)(C)COC(=O)[C@@H]3CCCN(N3)C2=O)C2CCCC2)C1 as the entry.
Reply: 6.00 to 7.00

Ask: Tell me its pIC50 given CCn1c(-c2cccnc2[C@H](C)OC)c2c3cc(ccc31)-c1cccc(c1)C[C@H](NC(=O)[C@H](C(C)C)N(C)C(=O)[C@H]1CCN(C(C)=O)C1)C(=O)N1CCC[C@H](N1)C(=O)OCC(C)(C)C2 as the entry.
Reply: 5.00 to 6.00

Ask: Tell me its pIC50 given CCn1c(-c2cccnc2[C@H](C)OC)c2c3cc(ccc31)-c1csc(n1)C[C@H](NC(=O)[C@H](C(C)C)N(C)C(=O)N(C)C(C)C)C(=O)N1CCC[C@H](N1)C(=O)OCC(C)(C)C2 as the entry.
Reply: 6.00 to 7.00

Ask: Tell me its pIC50 given CCn1c(-c2cccnc2[C@H](C)OC)c2c3cc(ccc31)-c1csc(n1)C[C@H](NC(=O)[C@H](C(C)C)N(C)C(=O)N1[C@H](C)CN(C)C[C@H]1C)C(=O)N1CCC[C@H](N1)C(=O)OCC(C)(C)C2 as the entry.
Reply: 6.00 to 7.00

Ask: Tell me its pIC50 given CCn1c(-c2cccnc2[C@H](C)OC)c2c3cc(ccc31)-c1csc(n1)C[C@H](NC(=O)[C@H]1CCO1)C(=O)N1CCC[C@H](N1)C(=O)OCC(C)(C)C2 as the entry.
Reply: 6.00 to 7.00

Ask: Tell me its pIC50 given CCn1c(-c2cccnc2[C@H](C)OC)c2c3cc(ccc31)-c1csc(n1)C[C@H](NC(=O)[C@H](C(C)C)N(C)C(=O)N1CC(OC(F)F)C1)C(=O)N1CCC[C@H](N1)C(=O)OCC(C)(C)C2 (atropisomer, axis not shown) as the entry.
Reply: 6.00 to 7.00

Ask: Tell me its pIC50 given C=CC(=O)N1CC2(CCN2C(=O)N(C)[C@H](C(=O)N[C@H]2Cc3nc(n(C)n3)-c3ccc4c(c3)c(c(-c3cccnc3[C@H](C)OC)n4CC)CC(C)(C)COC(=O)C3CCCN(N3)C2=O)C(C)C)C1 (some centres unmarked) as the entry.
Reply: 6.00 to 7.00

Ask: Tell me its pIC50 given CCn1c(-c2cccnc2[C@H](C)OC)c2c3cc(ccc31)-c1csc(n1)C[C@H](NC(=O)[C@H](C(C)C)N(C)C(=O)N1CC[C@@H]1CN(C)C)C(=O)N1CCC[C@H](N1)C(=O)OCC(C)(C)C2 as the entry.
Reply: 6.00 to 7.00

Ask: Tell me its pIC50 given CCn1c(-c2cccnc2[C@H](C)OC)c2c3cc(ccc31)-c1cc(O)cc(c1)C[C@H](NC(=O)[C@H](C(C)C)N(C)C(=O)C1COC1)C(=O)N1CCC[C@H](N1)C(=O)OCC(C)(C)C2 as the entry.
Reply: 6.00 to 7.00

Ask: Tell me its pIC50 given C=CC(=O)N1CC[C@@]2(CCN2C(=O)N(C)[C@H](C(=O)N[C@H]2Cc3nc(cs3)-c3ccc4c(c3)c(c(-c3cccnc3[C@H](C)OC)n4CC)CC(C)(C)COC(=O)C3CCCN(N3)C2=O)N(C)C)C1 (single isomer, unassigned) as the entry.
Reply: 6.00 to 7.00

Ask: Tell me its pIC50 given CCn1c(-c2cccnc2[C@H](C)OC)c2c3cc(ccc31)-c1csc(n1)C[C@H](NC(=O)[C@H](C(C)C)N(C)C(=O)N1CC[C@H]1C(=O)NC)C(=O)N1CC(C)C[C@H](N1)C(=O)OCC(C)(C)C2 (some centres unmarked) as the entry.
Reply: 5.00 to 6.00

Ask: Tell me its pIC50 given CCn1c(-c2cccnc2[C@H](C)OC)c2c3cc(ccc31)-c1csc(n1)C[C@H](NC(=O)[C@H](C(C)C)N(C)C(=O)N1[C@@H](C)CN(C)C[C@@H]1C)C(=O)N1CCC[C@H](N1)C(=O)OCC(C)(C)C2 as the entry.
Reply: 5.00 to 6.00

Ask: Tell me its pIC50 given CCn1c(-c2cccnc2[C@H](C)OC)c2c3cc(ccc31)-c1csc(n1)C[C@H](NC(=O)[C@H](C(C)C)N(C)C(=O)N1CCC13CN(C)C3)C(=O)N1CCC[C@H](N1)C(=O)OCC(C)(C)C2 as the entry.
Reply: 6.00 to 7.00

Ask: Tell me its pIC50 given CCn1c(-c2cccnc2[C@H](C)OC)c2c3cc(ccc31)-c1csc(n1)C[C@H](NC(=O)[C@H](C(C)C)N(C)C(=O)N1CC3(CC(N(C)C)C3)C1)C(=O)N1CCC[C@H](N1)C(=O)OCC(C)(C)C2 (atropisomer, axis not shown) as the entry.
Reply: 6.00 to 7.00
